# Test System: UniProt P25105
# Experiment Description: cellular HTRF IP1 assay: inhibition of PAFR activation by PAF C-16 ligand (endpoint assay)
# Assay type: cell-based
# Design: expressed in transfected cells; host or cells: HEK293
# Details: dedicated head-to-head comparison assay run: cyclopropylene vs di-methyl / cyclobutylene analogues
# Protocol: The ability of compounds of formula (I) to inhibit the activation of the PAF receptor (PAFR) by the PAF C-16 ligand (PAF) is determined using the following cellular HTRF IP1 assay (IP1 Gq assay kit from Cisbio, Cat. no.: 62IP1APEJ) in assay buffer (1×HBSS, 20 mM Hepes, pH 7.4, 50 mM LiCl and containing 0.1% (w/v) BSA): Evaluation of the Inhibition of PAFR Activation Using an Endpoint Assay […]
Provide the reported pIC50 of each item.
One number for each entry, as −log10 of the molar value.

Examples with answers:
Cc1nnc2n1-c1sc3c(c1C(c1ccccc1Cl)=NC21CCC1)C[C@H](C(=O)N1CCOCC1)C3 [comparative example 2, reference compound]; 7.23
Cc1nnc2n1-c1sc3c(c1C(c1ccccc1Cl)=NC21CC1)C[C@H](C(=O)NC1CCOCC1)C3; 8.01
Cc1nnc2n1-c1sc3c(c1C(c1ccccc1Cl)=NC21CC1)C[C@H](C(=O)N1CCOCC1)C3; 8.18

Consider the additional molecule presented here.
input: Fill blank: measured pIC50 of the molecule Cc1nnc2n1-c1sc3c(c1C(c1ccccc1Cl)=NC2(C)C)C[C@H](C(=O)NC1CCC1)C3 [reference compound] is ____.
output: 8.12

###

# Test System: UniProt:P25105
# Experiment Description: cellular HTRF IP1 assay: inhibition of PAFR activation by PAF C-16 ligand (endpoint assay)
# Type: cell-based
# Design: expressed in transfected cells; host or cells: HEK293
# Details: HEK293 cells overexpressing human PAFR; PAF ligand 11 nM; Table 2
Reported Metric: IC50 (nM)
One number for each entry, in nM.

Cc1nnc2n1-c1sc3c(c1C(c1ccccc1Cl)=NC21CC1)C[C@H](C(=O)NC1(C)CC1)C3 [Example 18]; 3.4
Cc1nnc2n1-c1sc3c(c1C(c1ccccc1Cl)=NC21CC1)C[C@H](C(=O)NCCOC(F)(F)F)C3 [Example 67]; 1.7

Kindly give each listed record's IC50.
1. Cc1nnc2n1-c1sc3c(c1C(c1cc(Br)ccc1Cl)=NC21CC1)C[C@H](C(=O)N1CCOCC1)C3 [Example 4]
2. Cc1nnc2n1-c1sc3c(c1C(c1ccccc1Cl)=NC21CC1)C[C@H](C(=O)N[C@@H]1CCc2ccccc21)C3 [Example 32]
3. CC(=O)N1CCC(N(C)C(=O)[C@@H]2Cc3sc4c(c3C2)C(c2ccccc2Cl)=NC2(CC2)c2nnc(C)n2-4)CC1 [Example 73]
4. Cc1nnc2n1-c1sc3c(c1C(c1ccccc1Cl)=NC21CC1)C[C@H](C(=O)N[C@H]1C[C@@H]1c1ccccc1)C3 [Example 17]
5. Cc1nnc2n1-c1sc3c(c1C(c1ccccc1Cl)=NC21CC1)C[C@H](C(=O)N[C@H]1COC[C@H]1C(C)C)C3 [Example 88]
6. Cc1nnc2n1-c1sc3c(c1C(c1ccccc1Cl)=NC21CC1)C[C@H](C(=O)NC1(C)CCCC1)C3 [Example 26]
7. Cc1nnc2n1-c1sc3c(c1C(c1ccccc1Cl)=NC21CC1)C[C@H](C(=O)NC1Cc2ccccc2C1)C3 [Example 31]
8. Cc1nnc2n1-c1sc3c(c1C(c1ccccc1Cl)=NC21CC1)C[C@H](C(=O)N[C@H]1CC[C@H](C(F)F)CC1)C3 [Example 76]

output:
1: 26; 2: 1; 3: 21; 4: 1.2; 5: 5.1; 6: 1.3; 7: 0.9; 8: 1.9

Kindly give each listed record's IC50.
1. Cc1nnc2n1-c1sc3c(c1C(c1ccccc1Cl)=NC21CC1)C[C@H](C(=O)NC1CCCS(=O)(=O)C1)C3 (stereo partly shown) [Example 121]
2. Cc1nnc2n1-c1sc3c(c1C(c1ccccc1Cl)=NC21CC1)C[C@H](C(=O)N[C@@H]1CCc2c1ccnc2N)C3 [Example 103]

output:
30
14

###

# Test System: UniProtKB P25105
# Experiment Description: cellular HTRF IP1 assay: inhibition of PAFR activation by PAF C-16 ligand (endpoint assay)
# Assay type: cell-based
# Design: expressed in transfected cells; host or cells: HEK293
# Details: HEK293 cells overexpressing human PAFR; PAF ligand 11 nM; Table 2
Provide the reported pIC50 of each item.
One number for each entry, as −log10 of the molar value.

Examples with answers:
Cc1nnc2n1-c1sc3c(c1C(c1ccccc1Cl)=NC21CC1)C[C@H](C(=O)N[C@@H]1COCC(F)(F)C1)C3; 8.37
Cc1nnc2n1-c1sc3c(c1C(c1ccccc1Cl)=NC21CC1)C[C@H](C(=O)NCC1CC1)C3; 8.72
Cc1nnc2n1-c1sc3c(c1C(c1ccccc1Cl)=NC21CC1)C[C@H](C(=O)N[C@H]1C[C@H]2OCCC[C@@H]12)C3; 8.28
Cc1nnc2n1-c1sc3c(c1C(c1ccccc1Cl)=NC21CC1)C[C@H](C(=O)NC1CCC2(CC1)CC2)C3; 8.82
CCCNC(=O)[C@@H]1Cc2sc3c(c2C1)C(c1ccccc1Cl)=NC1(CC1)c1nnc(C)n1-3; 8.62
Cc1nnc2n1-c1sc3c(c1C(c1ccccc1Cl)=NC21CC1)C[C@H](C(=O)NC1(c2cncnc2)CC1)C3; 7.55

Kindly give each listed record's pIC50.
1. Cc1nnc2n1-c1sc3c(c1C(c1ccccc1Cl)=NC21CC1)C[C@H](C(=O)N[C@H]1CCCOC1)C3
2. Cc1nnc2n1-c1sc3c(c1C(c1ccccc1Cl)=NC21CC1)C[C@H](C(=O)N(C)C1CCCCC1)C3

output:
1. 8.08
2. 8.89

###

# Test System: PAFR (Homo sapiens, UniProt P25105)
# Sequence (P25105 whole entry): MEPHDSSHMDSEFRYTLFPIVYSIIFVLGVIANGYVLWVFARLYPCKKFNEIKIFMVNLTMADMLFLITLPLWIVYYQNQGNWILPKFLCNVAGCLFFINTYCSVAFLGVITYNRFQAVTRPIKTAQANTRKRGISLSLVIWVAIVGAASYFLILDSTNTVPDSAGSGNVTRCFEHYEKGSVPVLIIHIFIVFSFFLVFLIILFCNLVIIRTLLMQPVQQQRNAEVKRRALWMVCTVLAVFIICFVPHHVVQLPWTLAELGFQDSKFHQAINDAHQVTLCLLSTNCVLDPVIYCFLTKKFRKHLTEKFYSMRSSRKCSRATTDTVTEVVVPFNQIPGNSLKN
# Experiment Description: cellular HTRF IP1 assay: inhibition of PAFR activation by PAF C-16 ligand (endpoint assay)
# Format: cell-based
# Parameters: expressed in transfected cells; host or cells: HEK293
# Details: dedicated head-to-head comparison assay run: cyclopropylene vs di-methyl / cyclobutylene analogues
Reported Metric: log10 IC50 (log10 of the value in nM)
Please be aware that the numbers have been log10-transformed from IC50 in nM.

Kindly give each listed record's log10 IC50.
1. CCCNC(=O)[C@@H]1Cc2sc3c(c2C1)C(c1ccccc1Cl)=NC1(CC1)c1nnc(C)n1-3
2. Cc1nnc2n1-c1sc3c(c1C(c1ccccc1Cl)=NC21CC1)C[C@H](C(=O)N[C@@H]1CCC(F)(F)C1)C3
3. Cc1nnc2n1-c1sc3c(c1C(c1ccccc1Cl)=NC2(C)C)C[C@H](C(=O)N1CCOCC1)C3 [comparative example 1, reference compound]
4. CCCNC(=O)[C@@H]1Cc2sc3c(c2C1)C(c1ccccc1Cl)=NC(C)(C)c1nnc(C)n1-3 [reference compound]
5. Cc1nnc2n1-c1sc3c(c1C(c1ccccc1Cl)=NC2(C)C)C[C@H](C(=O)N1CCC(F)(F)CC1)C3 [reference compound]
6. Cc1nnc2n1-c1sc3c(c1C(c1ccccc1Cl)=NC21CC1)C[C@H](C(=O)NC1CCc2cc(F)ccc21)C3 (stereo partly shown)
7. Cc1noc(C)c1NC(=O)[C@@H]1Cc2sc3c(c2C1)C(c1ccccc1Cl)=NC1(CC1)c1nnc(C)n1-3
8. Cc1nnc2n1-c1sc3c(c1C(c1ccccc1Cl)=NC2(C)C)C[C@H](C(=O)NC1CCOCC1)C3 [reference compound]

output:
1: 0.36; 2: 0.41; 3: 1.95; 4: 1.46; 5: 1.48; 6: 0.04; 7: 0.74; 8: 1.81

Kindly give each listed record's log10 IC50.
1. Cc1nnc2n1-c1sc3c(c1C(c1ccccc1Cl)=NC21CC1)C[C@H](C(=O)NC1(c2ccccn2)CC1)C3
2. Cc1nnc2n1-c1sc3c(c1C(c1ccccc1Cl)=NC2(C)C)C[C@H](C(=O)N[C@@H]1CCC(F)(F)C1)C3 [reference compound]

output:
1: 0.75; 2: 0.89

###

# Test System: PAFR (Homo sapiens)
# Experiment Description: cellular HTRF IP1 assay: inhibition of PAFR activation by PAF C-16 ligand (endpoint assay)
# Type: cell-based
# Parameters: expressed in transfected cells; host or cells: HEK293
# Details: HEK293 cells overexpressing human PAFR; PAF ligand 11 nM; Table 2
Provide the reported pIC50 of each item.
Give bare numbers, as −log10 of the molar value.

Examples with answers:
Cc1nnc2n1-c1sc3c(c1C(c1ccccc1Cl)=NC21CC1)C[C@H](C(=O)NC1CCCC(F)(F)C1)C3 (some centres unmarked); 8.64
Cc1nnc2n1-c1sc3c(c1C(c1ccccc1Cl)=NC21CC1)C[C@H](C(=O)N[C@H]1COC[C@H]1C)C3; 8.17
Cc1nnc2n1-c1sc3c(c1C(c1ccccc1Cl)=NC21CC1)C[C@H](C(=O)NC1[C@H]2CCC[C@@H]12)C3 (some centres unmarked); 8.80
CCN(C(=O)[C@@H]1Cc2sc3c(c2C1)C(c1ccccc1Cl)=NC1(CC1)c1nnc(C)n1-3)C1CCCCC1; 8.82
Cc1nnc2n1-c1sc3c(c1C(c1ccccc1Cl)=NC21CC1)C[C@H](C(=O)NC1CCC1)C3; 8.77

Kindly give each listed record's pIC50.
1. Cc1nnc2n1-c1sc3c(c1C(c1ccccc1Cl)=NC21CC1)C[C@H](C(=O)N1CC(C)(C)C1)C3
2. COc1ccccc1C1=NC2(CC2)c2nnc(C)n2-c2sc3c(c21)C[C@H](C(=O)N1CCOCC1)C3
3. Cc1nnc2n1-c1sc3c(c1C(c1ccccc1Cl)=NC21CC1)C[C@H](C(=O)NC1CCOCC1)C3
4. Cc1nnc2n1-c1sc3c(c1C(c1ccccc1Cl)=NC21CC1)C[C@H](C(=O)N(C)C1CCC(C)(C)CC1)C3
5. CCC12CC(NC(=O)[C@@H]3Cc4sc5c(c4C3)C(c3ccccc3Cl)=NC3(CC3)c3nnc(C)n3-5)(C1)C2
6. Cc1nnc2n1-c1sc3c(c1C(c1ccccc1Cl)=NC21CC1)C[C@H](C(=O)NC1CCc2cccnc21)C3 (some centres unmarked)
7. Cc1nnc2n1-c1sc3c(c1C(c1ccccc1Cl)=NC21CC1)C[C@H](C(=O)N[C@H]1C[C@H](S(C)(=O)=O)C1)C3

output:
1: 8.55; 2: 7.08; 3: 7.92; 4: 9.05; 5: 8.96; 6: 8.15; 7: 7.55

Kindly give each listed record's pIC50.
1. Cc1nnc2n1-c1sc3c(c1C(c1ccccc1Cl)=NC21CC1)C[C@H](C(=O)N1C[C@H](C)O[C@@H](C)C1)C3
2. Cc1cc2n(n1)CC(NC(=O)[C@@H]1Cc3sc4c(c3C1)C(c1ccccc1Cl)=NC1(CC1)c1nnc(C)n1-4)CC2 (some centres unmarked)

output:
8.34
8.00
